- condition_description: in ethanol, 323.15 K
property_measured: solubility (mole fraction)
Answers are plain numbers.

Ask: Need solubility (mole fraction) of O=C1c2ccccc2-c2ccc(Br)cc21 , thanks.
Reply: 0.00239

----------
- condition_description: in ethyl acetate, 303.15 K
property_measured: solubility (mole fraction)

Ask: Need solubility (mole fraction) of O=C1c2ccccc2-c2ccc(Br)cc21 , thanks.
Reply: 0.012

----------
- condition_description: in ethyl acetate, 323.15 K
property_measured: solubility (mole fraction)
Answers are plain numbers.

Ask: Need solubility (mole fraction) of O=C1c2ccccc2-c2ccc(Br)cc21 , thanks.
Reply: 0.0212

----------
- condition_description: in isopropanol, 283.15 K
property_measured: solubility (mole fraction)
Answers are plain numbers.

Ask: Need solubility (mole fraction) of O=C1c2ccccc2-c2ccc(Br)cc21 , thanks.
Reply: 0.000477

----------
- condition_description: in n-butanol, 278.15 K
property_measured: solubility (mole fraction)
Numbers only.

Ask: Need solubility (mole fraction) of O=C1c2ccccc2-c2ccc(Br)cc21 , thanks.
Reply: 0.000924

----------
- condition_description: in methyl acetate, 293.15 K
property_measured: solubility (mole fraction)
Answers are plain numbers.

Ask: Need solubility (mole fraction) of O=C1c2ccccc2-c2ccc(Br)cc21 , thanks.
Reply: 0.00738

----------
- condition_description: in acetonitrile, 313.15 K
property_measured: solubility (mole fraction)
Give bare numbers.

Ask: Need solubility (mole fraction) of O=C1c2ccccc2-c2ccc(Br)cc21 , thanks.
Reply: 0.00327

----------
- condition_description: in 1,4-dioxane, 308.15 K
property_measured: solubility (mole fraction)

Ask: Need solubility (mole fraction) of O=C1c2ccccc2-c2ccc(Br)cc21 , thanks.
Reply: 0.0334

----------
- condition_description: in methyl acetate, 288.15 K
property_measured: solubility (mole fraction)
Answers are plain numbers.

Ask: Need solubility (mole fraction) of O=C1c2ccccc2-c2ccc(Br)cc21 , thanks.
Reply: 0.00608

----------
- condition_description: in methanol, 293.15 K
property_measured: solubility (mole fraction)
One number for each entry.

Ask: Need solubility (mole fraction) of O=C1c2ccccc2-c2ccc(Br)cc21 , thanks.
Reply: 0.00042

----------
- condition_description: in n-butyl acetate, 323.15 K
property_measured: solubility (mole fraction)
Answers are plain numbers.

Ask: Need solubility (mole fraction) of O=C1c2ccccc2-c2ccc(Br)cc21 , thanks.
Reply: 0.03

----------
- condition_description: in methyl acetate, 298.15 K
property_measured: solubility (mole fraction)
Give bare numbers.

Ask: Need solubility (mole fraction) of O=C1c2ccccc2-c2ccc(Br)cc21 , thanks.
Reply: 0.00882

----------
- condition_description: in ethyl acetate, 313.15 K
property_measured: solubility (mole fraction)
One number for each entry.

Ask: Need solubility (mole fraction) of O=C1c2ccccc2-c2ccc(Br)cc21 , thanks.
Reply: 0.016

----------
- condition_description: in n-butanol, 308.15 K
property_measured: solubility (mole fraction)
One number for each entry.

Ask: Need solubility (mole fraction) of O=C1c2ccccc2-c2ccc(Br)cc21 , thanks.
Reply: 0.00328

----------
- condition_description: in acetonitrile, 323.15 K
property_measured: solubility (mole fraction)
Answers are plain numbers.

Ask: Need solubility (mole fraction) of O=C1c2ccccc2-c2ccc(Br)cc21 , thanks.
Reply: 0.0046

----------
- condition_description: in n-butanol, 288.15 K
property_measured: solubility (mole fraction)
Give bare numbers.

Ask: Need solubility (mole fraction) of O=C1c2ccccc2-c2ccc(Br)cc21 , thanks.
Reply: 0.00148
